biological target: Dihydrofolate reductase (Lactobacillus casei)
Sequence (P00381 whole entry): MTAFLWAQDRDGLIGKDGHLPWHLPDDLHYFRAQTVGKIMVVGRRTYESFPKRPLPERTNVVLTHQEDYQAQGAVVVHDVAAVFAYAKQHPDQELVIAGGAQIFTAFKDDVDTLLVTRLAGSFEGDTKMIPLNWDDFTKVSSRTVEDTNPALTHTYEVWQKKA
Metric Name: IC50 (µM)

Molecule	Test System	Metric Name	Reading Unit	Comparison Sign	Experimental Value
Nc1nc(O)c2c(n1)CCC(CNc1ccc(C(=O)NC(CCC(=O)O)C(=O)O)cc1)C2 (stereo not given)	Dihydrofolate reductase (Lactobacillus casei)	IC50	µM	=	30
C#CCN(CC1CCc2nc(N)nc(O)c2C1)c1ccc(C(=O)O)cc1 (stereo not given)	Dihydrofolate reductase (Lactobacillus casei)	IC50	µM	=	190
CN(CC1CCc2nc(N)nc(O)c2C1)c1ccc(C(=O)O)cc1 (stereo not given)	Dihydrofolate reductase (Lactobacillus casei)	IC50	µM	>	200
C#CCN(CC1CCc2nc(N)nc(O)c2C1)c1ccc(C(=O)NC(CCC(=O)O)C(=O)O)cc1 (stereo not given)	Dihydrofolate reductase (Lactobacillus casei)	IC50	µM	=	10
Nc1nc(O)c2c(n1)CCC(CNc1ccc(C(=O)O)cc1)C2 (stereo not given)	Dihydrofolate reductase (Lactobacillus casei)	IC50	µM	>	200

* * *

molecular target: UniProtKB P07607; assay: Evaluated for the inhibition of thymidylate synthase in intact L1210 cells; type: cell-based
pIC50: −log10 of the molar value.
In this section we review reported pIC50 values for a set of compounds.

Compound	pIC50
Nc1nc(O)c2c(n1)CCC(CNc1ccc(C(=O)NC(CCC(=O)O)C(=O)O)cc1)C2 (configuration not stated)	3.00
C#CCN(CC1CCc2nc(N)nc(O)c2C1)c1ccc(C(=O)NC(CCC(=O)O)C(=O)O)cc1 (configuration not stated)	2.96

* * *

Molecular target: UniProtKB P00469
Sequence (P00469 whole entry): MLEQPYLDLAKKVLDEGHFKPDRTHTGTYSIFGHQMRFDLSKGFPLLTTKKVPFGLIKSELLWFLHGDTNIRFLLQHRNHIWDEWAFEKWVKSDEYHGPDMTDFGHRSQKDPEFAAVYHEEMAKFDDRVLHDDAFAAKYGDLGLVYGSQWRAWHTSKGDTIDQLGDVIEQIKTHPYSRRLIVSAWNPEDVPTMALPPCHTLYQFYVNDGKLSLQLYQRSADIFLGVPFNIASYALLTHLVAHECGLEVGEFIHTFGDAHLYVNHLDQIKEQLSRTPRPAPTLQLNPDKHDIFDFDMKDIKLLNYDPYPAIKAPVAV
Let's look at some compounds and their measured IC50.
Metric Name: IC50 (µM)

Compound	Comparison Sign	Experimental Value
Nc1nc(O)c2c(n1)CCC(CNc1ccc(C(=O)O)cc1)C2 (stereo not given)	>	200
C#CCN(CC1CCc2nc(N)nc(O)c2C1)c1ccc(C(=O)NC(CCC(=O)O)C(=O)O)cc1 (stereo not given)	=	23
CN(CC1CCc2nc(N)nc(O)c2C1)c1ccc(C(=O)O)cc1 (stereo not given)	>	200
Nc1nc(O)c2c(n1)CCC(CNc1ccc(C(=O)NC(CCC(=O)O)C(=O)O)cc1)C2 (stereo not given)	>	280
C#CCN(CC1CCc2nc(N)nc(O)c2C1)c1ccc(C(=O)O)cc1 (stereo not given)	=	610

* * *

tested on: Lacticaseibacillus casei; assay: Antimicrobial activity against Lactobacillus casei MTX-resistant strain; assay type: functional; design: unit not given here
Recorded Activity, one value per entry.

Compound	Test System	Activity
CN(CC1CCc2nc(N)nc(O)c2C1)c1ccc(C(=O)O)cc1 (stereo unspecified)	Lacticaseibacillus casei	>20000
CN(CC1CCc2nc(N)nc(O)c2C1)c1ccc(C(=O)NC(CCC(=O)O)C(=O)O)cc1 (stereo unspecified)	Lacticaseibacillus casei	>20000
C#CCN(Cc1ccc2[nH]c(N)nc(=O)c2c1)c1ccc(C(=O)NC(CCC(=O)O)C(=O)O)cc1 (stereo unspecified)	Lacticaseibacillus casei	6400
Nc1nc(O)c2c(n1)CCC(CNc1ccc(C(=O)NC(CCC(=O)O)C(=O)O)cc1)C2 (stereo unspecified)	Lacticaseibacillus casei	>20000
C#CCN(CC1CCc2nc(N)nc(O)c2C1)c1ccc(C(=O)O)cc1 (stereo unspecified)	Lacticaseibacillus casei	>20000
C#CCN(CC1CCc2nc(N)nc(O)c2C1)c1ccc(C(=O)NC(CCC(=O)O)C(=O)O)cc1 (stereo unspecified)	Lacticaseibacillus casei	>10000

* * *

// values below are reported IC50
target: Thymidylate synthase (Mus musculus); test: Evaluated for the inhibition of thymidylate synthase in permeabilised L1210 cells; format: cell-based
Sequence (P07607 whole entry): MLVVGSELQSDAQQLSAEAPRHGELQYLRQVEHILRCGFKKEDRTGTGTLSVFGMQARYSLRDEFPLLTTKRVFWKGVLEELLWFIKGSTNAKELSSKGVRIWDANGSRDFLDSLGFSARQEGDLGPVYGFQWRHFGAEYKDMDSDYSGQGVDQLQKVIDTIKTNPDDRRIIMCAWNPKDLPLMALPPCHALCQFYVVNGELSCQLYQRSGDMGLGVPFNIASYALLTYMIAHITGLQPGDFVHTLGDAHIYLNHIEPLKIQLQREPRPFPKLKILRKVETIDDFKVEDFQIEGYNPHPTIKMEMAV

Compound	IC50, µM
C#CCN(CC1CCc2nc(N)nc(O)c2C1)c1ccc(C(=O)NC(CCC(=O)O)C(=O)O)cc1 (configuration not stated)	11
Nc1nc(O)c2c(n1)CCC(CNc1ccc(C(=O)NC(CCC(=O)O)C(=O)O)cc1)C2 (configuration not stated)	12
